Assay: enzyme activity assay at 23° C. with purified enzyme
Format: biochemical
Conditions: percentage of wild-type RdpA, set at 100%
Description: The enzyme activity of MON-HT protein variants with triclopyr, fluroxypyr, MCPA, MCPB, mecoprop, as substrates was determined using the enzyme activity assay conducted at 23° C. with purified enzyme. The activity was recorded as the maximum activity as a percentage of the wild-type RdpA enzyme's activity, which was set at 100%. […] The enzymatic activity with mecoprop as a substrate was reduced for each of the MON-HT1, MON-HT13, MON-HT15, and MON-HT17 variants compared to the wild-type RdpA enzyme. […]
metric.name: Mecoprop Km

Q: Supply recorded Mecoprop Km for MON-HT15: engineered oxygenase protein, amino acid sequence SEQ ID NO:49 (protein) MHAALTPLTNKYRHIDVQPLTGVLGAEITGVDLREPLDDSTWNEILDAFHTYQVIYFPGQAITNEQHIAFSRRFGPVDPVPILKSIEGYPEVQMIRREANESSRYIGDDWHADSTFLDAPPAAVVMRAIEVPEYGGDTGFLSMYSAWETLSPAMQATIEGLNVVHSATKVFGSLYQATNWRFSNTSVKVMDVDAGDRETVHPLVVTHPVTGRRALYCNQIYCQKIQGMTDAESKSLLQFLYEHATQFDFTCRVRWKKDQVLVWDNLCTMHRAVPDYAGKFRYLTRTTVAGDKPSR here.
Result: 57%
